assay: Cmax in rat at 5 mg/kg, po; type: ADME, organism-based; design: dose 5 mg/kg, route oral; conditions: in vivo
So I've got a bunch of compounds here, and I need their Cmax values.
Only the number, expressed in ng/mL, is required.

Looking up CCOc1nc(C(=O)NCc2ccccc2S(N)(=O)=O)cc(N)c1C#N , I found its Cmax recorded as 1320

// CCOc1nc(C(=O)NCc2ccc(S(C)(=O)=O)cc2)cc(N)c1C#N : Cmax value = 1020

# Cmax of CCOc1nc(C(=O)NCc2ccc(S(C)(=O)=O)cc2)cc(N)c1Cl = 1780

The value of Cmax measured for the compound CCOc1nc(C(=O)NCc2cccnc2)cc(N)c1C#N turned out to be 2920

----------
biological target: Mitogen-activated protein kinase 8 (Homo sapiens); assay: Inhibition of JNK1
Sequence (P45983 whole entry): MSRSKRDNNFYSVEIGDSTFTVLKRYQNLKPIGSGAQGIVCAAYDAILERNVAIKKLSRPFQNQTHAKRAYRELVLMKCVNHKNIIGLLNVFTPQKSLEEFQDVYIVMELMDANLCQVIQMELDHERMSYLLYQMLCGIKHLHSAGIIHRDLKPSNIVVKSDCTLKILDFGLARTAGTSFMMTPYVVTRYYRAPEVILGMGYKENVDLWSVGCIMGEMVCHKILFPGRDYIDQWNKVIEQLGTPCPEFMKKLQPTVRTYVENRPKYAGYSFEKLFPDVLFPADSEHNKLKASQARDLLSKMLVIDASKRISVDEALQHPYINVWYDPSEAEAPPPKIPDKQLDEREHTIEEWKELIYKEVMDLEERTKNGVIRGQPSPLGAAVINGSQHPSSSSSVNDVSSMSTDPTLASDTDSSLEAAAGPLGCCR
pIC50: −log10 of the molar value.
Would you please tag the item rule met when its pIC50 is 7 or above, and rule not met when it is below?

Quick check: does CCOc1nc(NCc2cc(OC)ccc2OC)cc(N)c1C#N have pIC50 greater than or equal to 7?
rule not met

Check this compound for pIC50 at or above 7: CCOc1nc(C(=O)NCc2cc(OC)ccc2OC)ccc1C#N
rule not met

Exam item: decide whether the reported pIC50 for CCOc1nc(C(=O)NCc2ccc(-c3ccc(C(=O)O)cc3)nc2)cc(N)c1C#N is at least 7.
rule met

Please check the record CS(=O)(=O)c1ccc(CNC(=O)c2cc(N)c(C#N)c(Cl)n2)cc1 and state if its pIC50 is at or above 7.
rule not met

Decide: is the reported value of pIC50 for CCOc1nc(C(=O)NCc2ccc(S(C)(=O)=O)cc2)ccc1C#N equal to or greater than 7?
rule not met

Does the compound CCOc1nc(C(=O)N(C)Cc2ccc(S(C)(=O)=O)cc2)cc(N)c1C#N have recorded pIC50 that is 7 or more?
rule not met

Item CCOc1nc(C(=O)NCc2ccccc2S(N)(=O)=O)cc(N)c1C#N with pIC50 of 7 or above?
rule met

Form field: pIC50 at least 7? Entry: CCOc1nc(C(=O)NCc2ccccc2)cc(N)c1C#N
rule not met

Check the entry CCOc1nc(C(=O)NC)cc(N)c1C#N : does pIC50 equal or exceed 7?
rule not met

----------
experiment: Oral bioavailability in rat at 5 mg/kg, po; type: ADME, organism-based; conditions: in vivo
property.label: bioavailability (%)
Give the value in % but do not write % after it.

The reported bioavailability of the compound CCOc1nc(C(=O)NCc2ccc(S(C)(=O)=O)cc2)cc(N)c1C#N was 38.8

According to the records, this compound CCOc1nc(C(=O)NCc2ccccc2S(N)(=O)=O)cc(N)c1C#N displays bioavailability of 54.7

Form: compound = CCOc1nc(C(=O)NCc2ccc(S(C)(=O)=O)cc2)cc(N)c1Cl ; bioavailability = 124

# bioavailability of CCOc1nc(C(=O)NCc2cccnc2)cc(N)c1C#N = 32.7

----------
Molecular target: Calcium/calmodulin-dependent protein kinase type IV (Homo sapiens)
Sequence (Q16566 whole entry): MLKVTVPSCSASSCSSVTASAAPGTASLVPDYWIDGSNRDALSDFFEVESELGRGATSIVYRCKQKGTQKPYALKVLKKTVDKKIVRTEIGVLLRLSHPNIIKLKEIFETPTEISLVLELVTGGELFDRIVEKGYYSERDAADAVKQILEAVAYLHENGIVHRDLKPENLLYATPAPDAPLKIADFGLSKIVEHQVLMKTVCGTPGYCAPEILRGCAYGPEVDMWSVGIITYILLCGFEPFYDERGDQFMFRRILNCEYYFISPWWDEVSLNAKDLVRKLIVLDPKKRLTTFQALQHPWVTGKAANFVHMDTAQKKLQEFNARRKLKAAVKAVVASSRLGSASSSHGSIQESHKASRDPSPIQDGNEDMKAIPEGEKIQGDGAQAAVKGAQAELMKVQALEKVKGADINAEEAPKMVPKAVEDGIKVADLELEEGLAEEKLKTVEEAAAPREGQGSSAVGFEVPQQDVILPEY
Assay: Inhibition of CaMK4
pKi: −log10 of the molar value.
property.label: pKi

Lab note: CCOc1nc(C(=O)NCc2ccc(S(C)(=O)=O)cc2)cc(N)c1Cl gave pKi of < 5.07

----------
molecular target: UniProt:Q12809
Sequence (Q12809 whole entry): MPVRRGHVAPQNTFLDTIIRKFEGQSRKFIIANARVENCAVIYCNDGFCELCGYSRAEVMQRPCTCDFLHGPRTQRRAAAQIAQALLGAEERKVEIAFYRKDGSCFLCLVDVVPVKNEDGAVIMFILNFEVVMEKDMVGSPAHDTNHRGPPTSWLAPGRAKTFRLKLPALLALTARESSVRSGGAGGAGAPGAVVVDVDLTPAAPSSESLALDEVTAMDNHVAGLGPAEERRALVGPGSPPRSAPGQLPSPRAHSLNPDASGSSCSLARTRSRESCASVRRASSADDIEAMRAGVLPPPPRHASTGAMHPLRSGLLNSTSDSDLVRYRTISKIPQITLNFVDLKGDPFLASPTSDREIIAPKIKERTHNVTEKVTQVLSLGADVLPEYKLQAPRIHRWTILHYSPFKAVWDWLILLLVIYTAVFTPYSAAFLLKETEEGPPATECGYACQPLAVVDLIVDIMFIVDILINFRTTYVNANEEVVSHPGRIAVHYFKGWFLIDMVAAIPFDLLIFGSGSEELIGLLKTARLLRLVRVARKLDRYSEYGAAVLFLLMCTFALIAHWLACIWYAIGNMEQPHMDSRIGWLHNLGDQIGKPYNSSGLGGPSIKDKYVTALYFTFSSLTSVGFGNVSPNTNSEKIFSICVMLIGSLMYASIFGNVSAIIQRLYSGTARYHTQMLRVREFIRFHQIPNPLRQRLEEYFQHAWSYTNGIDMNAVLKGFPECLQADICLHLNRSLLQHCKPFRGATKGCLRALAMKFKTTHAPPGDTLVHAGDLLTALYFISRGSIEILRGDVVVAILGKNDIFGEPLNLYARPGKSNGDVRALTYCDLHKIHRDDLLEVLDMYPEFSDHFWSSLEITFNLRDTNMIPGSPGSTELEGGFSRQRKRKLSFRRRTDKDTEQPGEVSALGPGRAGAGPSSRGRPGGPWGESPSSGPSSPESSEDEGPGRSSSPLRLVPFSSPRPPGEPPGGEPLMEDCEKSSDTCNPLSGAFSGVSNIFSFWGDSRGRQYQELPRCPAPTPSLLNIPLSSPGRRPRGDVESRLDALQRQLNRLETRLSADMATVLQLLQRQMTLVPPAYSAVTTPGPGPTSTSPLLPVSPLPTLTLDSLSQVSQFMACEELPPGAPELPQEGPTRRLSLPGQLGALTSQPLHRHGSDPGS
property.label: IC50

Looking up CCOc1nc(C(=O)NCc2ccc(S(C)(=O)=O)cc2)cc(N)c1C#N , I found its IC50 recorded as > 100 µM

----------
assay: Half life in rat microsomes; type: ADME, Microsome; settings: liver microsomes
I'd be grateful if you could share measured half-life for these entries.

Lab book: half-life of CCOc1nc(C(=O)NCc2ccc(S(C)(=O)=O)cc2)cc(N)c1C#N noted as > 1 h

Entry CCOc1nc(C(=O)NCc2ccc(S(C)(=O)=O)cc2)cc(N)c1Cl , half-life reported as > 1 h

Sample CCOc1nc(C(=O)NCc2ccccc2S(N)(=O)=O)cc(N)c1C#N ; half-life observed: > 1 h

----------
assay: Inhibition of IGFR; parameters: species or system Homo sapiens
property.label: Ki

Please fill in: Ki reported for CCOc1nc(C(=O)NCc2ccc(S(C)(=O)=O)cc2)cc(N)c1Cl = > 1000 nM

----------
Assignment: determine reported IC50 for the given compounds.
target: c-Jun N-terminal kinase, JNK (Homo sapiens, UniProt P45983+P53779+P45984); experiment: Inhibition of cJun phosphorylation in HepG2 cells; type: functional, cell-based
API: value field is a number in nM; no unit string.

Record summary for CCOc1nc(C(=O)NCc2ccc(S(C)(=O)=O)cc2)ccc1C#N : reported IC50 = 5800

The compound listed as CCOc1nc(C(=O)NCc2cc(OC)ccc2OC)ccc1C#N shows IC50 equal to 2500

Measured IC50, CC(C)Oc1nc(C(=O)NCc2ccc(S(C)(=O)=O)cc2)cc(N)c1Cl : 410

For CCOc1nc(C(=O)NCc2cc(OC)ccc2OC)cc(N)c1C#N the compound record lists IC50 as 640

Record CCOc1nc(C(=O)NCc2ccccc2)cc(N)c1C#N , field IC50: 1100

----------
molecular target: Mitogen-activated protein kinase 9 (Homo sapiens, UniProt P45984); experiment: Inhibition of JNK2
Sequence (P45984 whole entry): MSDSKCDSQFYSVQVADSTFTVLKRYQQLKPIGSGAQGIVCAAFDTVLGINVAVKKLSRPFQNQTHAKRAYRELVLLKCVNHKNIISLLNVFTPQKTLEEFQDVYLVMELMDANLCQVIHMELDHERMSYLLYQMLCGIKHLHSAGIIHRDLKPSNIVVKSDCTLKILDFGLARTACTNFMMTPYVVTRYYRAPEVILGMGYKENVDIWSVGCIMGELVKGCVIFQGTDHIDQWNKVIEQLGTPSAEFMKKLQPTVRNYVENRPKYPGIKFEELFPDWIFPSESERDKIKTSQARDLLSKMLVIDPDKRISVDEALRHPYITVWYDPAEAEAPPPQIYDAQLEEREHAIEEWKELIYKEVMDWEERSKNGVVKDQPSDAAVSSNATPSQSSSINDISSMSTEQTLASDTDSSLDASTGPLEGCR
Hi there, I'd appreciate the recorded log10(IC50) for every entry that follows.
# values: log10(IC50), units nM

Reported log10(IC50) for CC(C)Oc1nc(C(=O)NCc2ccc(S(C)(=O)=O)cc2)cc(N)c1Cl was 1.83

GET /value?item= CCOc1nc(C(=O)NCc2ccc(-c3ccc(C(=O)O)cc3)nc2)cc(N)c1C#N &field=log10(IC50) returns 1.04

For reference, reported log10(IC50) for CS(=O)(=O)c1ccc(CNC(=O)c2cc(N)c(C#N)c(Cl)n2)cc1 stands at 3.64

Short answer for CCOc1nc(C(=O)NC)cc(N)c1C#N : log10(IC50) was 2.79

compound CCOc1nc(C(=O)NCc2ccccc2)cc(N)c1C#N , log10(IC50) observed: 2.28

GET /value?item= CCOc1nc(C(=O)NCc2cc(OC)ccc2OC)cc(N)c1C#N &field=log10(IC50) returns 2.08

----------
assay: Inhibition of MAPKAPK; set-up: species or system Homo sapiens
pKi: −log10 of the molar value.
property.label: pKi

The recorded pKi for entry CCOc1nc(C(=O)NCc2ccc(S(C)(=O)=O)cc2)cc(N)c1Cl equals < 5.08

----------
biological target: Mitogen-activated protein kinase 8 (Homo sapiens); assay: Inhibition of JNK1
property.label: Ki (nM)
Dear colleague, please return just the value in nM, with no unit written.

Entry CCOc1nc(C(=O)NC)cc(N)c1C#N ; Ki = 400

----------
assay: Half life in rat at 5 mg/kg, po; format: ADME, organism-based; parameters: dose 5 mg/kg, route oral; conditions: in vivo
property.label: half-life
// return the numeric value with its unit appended

Input CCOc1nc(C(=O)NCc2ccc(S(C)(=O)=O)cc2)cc(N)c1Cl . Output half-life: 5.1 h

// sample CCOc1nc(C(=O)NCc2ccc(S(C)(=O)=O)cc2)cc(N)c1C#N , its half-life was 3.4 h

// half-life value for CCOc1nc(C(=O)NCc2cccnc2)cc(N)c1C#N : 0.5 h

The molecule listed as CCOc1nc(C(=O)NCc2ccccc2S(N)(=O)=O)cc(N)c1C#N shows half-life equal to 2.2 h

----------
experiment: Half life in human microsomes; type: ADME, Microsome; details: liver microsomes
property.label: half-life

Entry CCOc1nc(C(=O)NCc2ccc(S(C)(=O)=O)cc2)cc(N)c1C#N — recorded half-life = > 1 h

----------
assay: AUC in rat at 5 mg/kg, po; format: ADME, organism-based; design: dose 5 mg/kg, route oral; settings: plasma
Can you tell me AUC for the items I'm about to list?

response.value for CCOc1nc(C(=O)NCc2cccnc2)cc(N)c1C#N (field: AUC) = 3800 ng·h/mL

// recorded AUC for CCOc1nc(C(=O)NCc2ccc(S(C)(=O)=O)cc2)cc(N)c1C#N : 6320 ng·h/mL

Data point: CCOc1nc(C(=O)NCc2ccccc2S(N)(=O)=O)cc(N)c1C#N ; AUC = 4000 ng·h/mL

Recorded AUC (molecule CCOc1nc(C(=O)NCc2ccc(S(C)(=O)=O)cc2)cc(N)c1Cl ): 15400 ng·h/mL
